The values you see were collected from patent US20240360228A1.

Target: T1, human CCR8 (human, UniProt P51685 1-355)
T1 construct: Native CCR8 on human PBMC (CCR8+ CD3+ or CCR8+ CD4+ lymphocytes); also called chemokine (C-C motif) receptor 8
T1 sequence (P51685 whole entry): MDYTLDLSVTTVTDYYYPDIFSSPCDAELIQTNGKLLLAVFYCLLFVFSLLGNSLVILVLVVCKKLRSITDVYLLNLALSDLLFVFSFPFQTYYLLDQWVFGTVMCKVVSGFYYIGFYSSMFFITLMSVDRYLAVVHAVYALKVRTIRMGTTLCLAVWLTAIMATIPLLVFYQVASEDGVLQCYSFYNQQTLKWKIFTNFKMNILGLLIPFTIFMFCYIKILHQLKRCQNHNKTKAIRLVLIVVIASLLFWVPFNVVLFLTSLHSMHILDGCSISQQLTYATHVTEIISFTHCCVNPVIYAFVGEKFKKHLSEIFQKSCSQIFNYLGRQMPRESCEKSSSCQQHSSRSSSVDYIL
Test: flow blocking, PBMC CCR8+CD4+; competitor PE-AB4
Reported % Blocking values follow for various binders
Express it in %; write the number only.

Use these answered entries as a reference point.
AB8 (antibody, V domains shown, Hybridoma monoclonal; also called antibody 8; clone 8) VH: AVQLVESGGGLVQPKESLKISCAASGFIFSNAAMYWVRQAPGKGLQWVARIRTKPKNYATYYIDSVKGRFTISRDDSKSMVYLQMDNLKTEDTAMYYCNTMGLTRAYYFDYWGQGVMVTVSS VL: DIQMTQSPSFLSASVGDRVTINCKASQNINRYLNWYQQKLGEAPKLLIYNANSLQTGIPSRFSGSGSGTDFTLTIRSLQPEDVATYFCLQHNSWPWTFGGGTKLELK ... -19.7
AB13 (antibody, V domains shown, Hybridoma monoclonal; also called antibody 13; clone 13) VH: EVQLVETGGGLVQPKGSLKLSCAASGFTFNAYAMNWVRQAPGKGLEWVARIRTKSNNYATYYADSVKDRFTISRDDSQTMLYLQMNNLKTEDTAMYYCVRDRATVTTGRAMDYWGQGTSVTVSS VL: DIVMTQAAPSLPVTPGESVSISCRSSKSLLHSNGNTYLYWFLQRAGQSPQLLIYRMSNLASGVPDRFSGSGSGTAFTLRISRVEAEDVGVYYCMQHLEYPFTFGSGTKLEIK ... -18.5

Query :: For the binder AB2 (antibody, V domains shown, Hybridoma monoclonal; Same VH/VL entries as AB1; also called antibody 2; clone 2) VH: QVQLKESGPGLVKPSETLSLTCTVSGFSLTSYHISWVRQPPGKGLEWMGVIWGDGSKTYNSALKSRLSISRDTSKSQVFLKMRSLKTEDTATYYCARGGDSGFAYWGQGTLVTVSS VL: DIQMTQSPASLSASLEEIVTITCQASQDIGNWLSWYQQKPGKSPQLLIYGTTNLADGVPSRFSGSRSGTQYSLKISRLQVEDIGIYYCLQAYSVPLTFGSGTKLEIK , what % Blocking is on record?
Result :: 96.6

Query :: For the binder AB15 (antibody, V domains shown, Hybridoma monoclonal; Same VH/VL entries as AB14; also called antibody 15; clone 15) VH: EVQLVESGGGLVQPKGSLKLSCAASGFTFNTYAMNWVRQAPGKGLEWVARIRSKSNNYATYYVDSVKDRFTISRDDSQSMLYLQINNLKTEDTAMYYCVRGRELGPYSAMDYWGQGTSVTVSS VL: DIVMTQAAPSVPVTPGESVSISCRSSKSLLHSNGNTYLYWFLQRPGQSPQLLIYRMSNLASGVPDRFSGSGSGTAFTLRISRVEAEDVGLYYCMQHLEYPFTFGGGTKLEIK , what % Blocking is on record?
Result :: -1.69

Query :: Value lookup for % Blocking; key = AB3 (antibody, V domains shown, Hybridoma monoclonal; also called antibody 3; clone 3) VH: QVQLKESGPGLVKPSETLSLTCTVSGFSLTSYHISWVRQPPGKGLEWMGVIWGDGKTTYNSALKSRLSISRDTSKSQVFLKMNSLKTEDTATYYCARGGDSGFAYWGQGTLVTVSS VL: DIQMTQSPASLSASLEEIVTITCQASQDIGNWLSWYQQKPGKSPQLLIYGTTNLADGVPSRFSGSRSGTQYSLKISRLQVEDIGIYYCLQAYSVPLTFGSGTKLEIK
Result :: 93.3
